Hey, just so you know, these numbers are from PubChem BioAssay (NCI).

Test system: SNB-75 CNS
assay.overview: NCI tumour cell line growth inhibition, 48 h
value.kind: TGI (µM)

# molecule, value.kind, qualifying.sign, recorded.measurement
records = [
    ("O=C(CC(C(=O)c1ccoc1)c1ccco1)c1ccco1 (stereo not given)", "TGI", ">", 100),
    ("O=S1C2=C(Cc3ccccc3)C(Cc3ccccc3)=C1CCc1cccc(c1)CC2", "TGI", "=", 27.8),
    ("COc1cc(Nc2nc(N[C@H]3CCCC[C@@H]3N)nc3cc[nH]c(=O)c23)cc(OC)c1", "TGI", "=", 17.3),
    ("Nc1cc(N)c(N)cc1N", "TGI", "=", 2.87),
    ("CN(C)Cc1cc(N=Nc2ccccc2)cc(CN(C)C)c1O", "TGI", ">", 100),
]
